tested on: MDR1; test: MDCK-MDR1 permeability assay; type: in vitro ADME; conditions: dog, MDCK-MDR1, MDCK-MDR1 cells; test compound 3 μM; 2 hours at 37 degrees C; apical to basolateral

- compound: "CS(=O)(=O)N[C@H]1CCCN2C(=O)COc3ccc(O)cc3[C@H]3CC[C@H](CC3)OCC12 (stereo in doubt) [Compound 96]"
  Papp A→B at 2 h, 3 μM, ×10⁻⁶ cm/s: 0.53
- compound: "Cc1cccc2c1[C@H]1CC[C@H](CC1)OC[C@H]1[C@@H](NS(C)(=O)=O)CCN1C(=O)CO2 [Compound 20]"
  Papp A→B at 2 h, 3 μM, ×10⁻⁶ cm/s: 6.8
- compound: "O=S(=O)(N[C@H]1CCCN2CCOc3ccccc3[C@H]3CC[C@H](CC3)OCC12)C1CCC1 (stereo in doubt) [Compound 57]"
  Papp A→B at 2 h, 3 μM, ×10⁻⁶ cm/s: 1.7
- compound: "O=C1COc2ccccc2C2CCC(CC2)OC[C@H]2[C@@H](NS(=O)(=O)C(F)(F)F)CCCN12 (stereo in doubt) [Compound 11]"
  Papp A→B at 2 h, 3 μM, ×10⁻⁶ cm/s: 1.6

###

assay: Hepatocytes stability assay (human hepatocytes); format: in vitro ADME; details: both sexes, human, cryopreserved hepatocytes, cryopreserved human hepatocytes (pool of 50 mixed gender); 1 μM test compound; 1×10^6 cell/mL; 37 degrees C; read-out: CLint (μL/min/million cells)
property-name: log10 of hepatocyte CLint at 1 μM (log10 of the value in µL/min/1e6 cells)

- molecule: "Cc1ccnc2c1[C@H]1CC[C@H](CC1)OCC1[C@@H](NS(=O)(=O)C3CCOC3)CCCN1C(=O)CO2 (stereo in doubt)"
  number: 1.08
- molecule: "O=C1COc2ccccc2C2CCC(CC2)OC[C@H]2[C@@H](NS(=O)(=O)CF)CCCN12 (stereo in doubt)"
  number: 1.26
- molecule: "Cc1ccnc2c1C1CCC(CC1)OC[C@H]1[C@@H](NS(=O)(=O)C(C)C)CCCN1C(=O)CO2 (stereo in doubt)"
  number: 0.97
- molecule: "O=C1COc2ccccc2[C@H]2CC[C@H](CC2)OCC2[C@@H](NS(=O)(=O)C3CCOC3)CCCN12 (stereo in doubt)"
  number: 1.11
- molecule: "C=CS(=O)(=O)N[C@H]1CCCN2C(=O)COc3ccccc3C3CCC(CC3)OC[C@@H]12 (stereo in doubt)"
  number: 1.34
- molecule: "Cc1ccc2c(c1C)[C@H]1CC[C@H](CC1)OCC1[C@@H](NS(=O)(=O)C3CC3)CCCN1C(=O)CO2 (stereo in doubt)"
  number: 1.08
- molecule: "Cc1ccc2c(c1C)[C@H]1CC[C@H](CC1)OCC1[C@@H](NS(C)(=O)=O)CCCN1C(=O)CO2 (stereo in doubt)"
  number: 0.86
- molecule: "O=C1COc2ccccc2[C@H]2CC[C@H](CC2)OCC2[C@@H](NS(=O)(=O)C3COC3)CCCN12 (stereo in doubt)"
  number: 1.04
- molecule: "Cc1cccc2c1[C@H]1CC[C@H](CC1)OC[C@H]1[C@@H](NS(C)(=O)=O)CCN1C(=O)CO2"
  number: 1.43
- molecule: "O=C1COc2cccc(F)c2[C@H]2CC[C@H](CC2)OCC2[C@@H](NS(=O)(=O)C(F)(F)F)CCCN12 (stereo in doubt)"
  number: 0.52
- molecule: "CCS(=O)(=O)N[C@H]1CCCN2CCOc3ccccc3[C@H]3CC[C@H](CC3)OCC12 (stereo in doubt)"
  number: 1.76
